Test system: HT29 colon
test description: NCI-60 one-dose screen, 48 h (100 = growth as untreated, 0 = no growth, -100 = all killed)
study conditions: 10 µM unless noted
Compounds without any hit were thinned out: in the full panel of roughly 83,000, 20% have a hit.
readout label: growth (%)
# unit: % | format: bare number

These recorded examples may help you get a feel for the data.
>>> test_result("O=C(/C=C/c1cn(-c2ccccc2)nc1-c1cccc(Nc2ccnc3cc(Cl)ccc23)c1)c1ccc2c(c1)OCO2")
114
>>> test_result("CC(=O)O[C@H]1[C@H](CC#CC#CC[C@@H]2C[C@]3(C)[C@H]4CC=C5[C@H]6[C@@H](C)[C@H](C)CC[C@]6(C(=O)NCCCCCCCCN)CC[C@@]5(C)[C@]4(C)CC[C@H]3C(C)(C)[C@H]2OC(C)=O)C[C@]2(C)[C@H]3CC=C4[C@H]5[C@@H](C)[C@H](C)CC[C@]5(C(=O)NCCCCCCCCN)CC[C@@]4(C)[C@]3(C)CC[C@H]2C1(C)C")
98.2
>>> test_result("COc1cc(-c2csc(NC(=O)Nc3cccc(C(F)(F)F)c3)n2)cc(OC)c1OC")
62.6
>>> test_result("O=C(NCC(c1ccsc1)N1CCCCCC1)c1ccc(C(F)(F)F)cc1 (stereo not drawn)")
82
>>> test_result("C=CCn1c(C)nc2cc(Nc3nc(N4CCCC4)nc4nc[nH]c34)ccc21")
12.4
>>> test_result("O=C(N=Nc1c(Cl)c(O)c2ccccc2c1O)C(=O)Nc1cccc(C(F)(F)F)c1")
73.6

compound `Cc1cc(C)c2c(n1)sc1c(Nc3ccc(O)cc3)ncnc12` , growth observed: 40

Entry under test: CO[C@@]12[C@@H]3NC3CN1C1=C(C(=O)C(N)=C(C)C1=O)[C@@H]2COC(N)=O (stereo partly drawn) . Its growth was -18.1

* * *

Test system: KM12 colon
test description: NCI-60 one-dose screen, 48 h (100 = growth as untreated, 0 = no growth, -100 = all killed)
study conditions: 10 µM unless noted
About 83,000 compounds went through this panel and 20% of them were active in at least one assay; those are over-represented in the sample as a whole.
readout label: growth (%)
Give just the numeric value; % need not be written.

These solved cases illustrate the format of a correct answer.
>>> test_result("CCOC(=O)C1=C(C)NC(SCc2nnc(-c3ccc(Cl)cc3)o2)=NC1c1ccc(Cl)cc1 (centres undefined)")
69.8
>>> test_result("COc1ccc2nc(NC(=O)/C(=C/c3cc(OC)c(OC)c(OC)c3)c3ccc(OC)c(OC)c3)sc2c1")
101
>>> test_result("CNCc1ccccc1CN(CC(=O)Nc1ccc2c(c1)CC1(C2)C(=O)Nc2ncccc21)C(=O)C(C)(C)C (centres undefined)")
107

Consider the additional compound presented here.
Entry `Cc1nc2ccc(Nc3nc(NCCN4CCOCC4)nc(Nc4ccc(F)cc4)n3)cc2n1Cc1ccccc1` , KM12 colon data, growth value: 43.4

* * *

System: MDA-MB-435 melanoma
test description: NCI-60 one-dose screen, 48 h (100 = growth as untreated, 0 = no growth, -100 = all killed)
study conditions: 10 µM unless noted
About 83,000 compounds went through this panel and 20% of them were active in at least one assay; those are over-represented in the sample as a whole.
Here, each record is paired with measured growth data.
Unit % implied. Number only.

Use the examples below as a reference point.
>>> test_result("COc1ccc(NC(=O)C2c3ccccc3C(=O)N(CC(C)C)C2c2cccs2)cc1 (stereo unspecified)")
103
>>> test_result("Clc1ccccc1Nc1nnc(-c2ccncc2)s1")
93.6
>>> test_result("Cc1cc(C)cc(CCCCCCCCCCCCCCCCCC(=O)O)c1")
115
>>> test_result("COc1ccc(C2CC(c3ccc(Nc4ccnc5cc(Cl)ccc45)cc3)=NN2c2ccccc2)cc1 (stereo unspecified)")
80.3
>>> test_result("CCCCNCC(O)c1cc(-c2ccc(C(F)(F)F)cc2)nc(-c2ccc(C(F)(F)F)cc2)c1 (stereo unspecified)")
-68.6

# input for lookup
compound `Cc1nn(-c2ccc(Cl)cc2)c(=O)n1CCN1CCOCC1` , growth observed: 84.9

meta.source: PubChem BioAssay (NCI)
